Hello, the source for this data is patent US12152038B2, in case you need it.

efflux ratio at 1 h, 10 μM overview
Target: MDR1 (P-glycoprotein) (Homo sapiens)
Construct: host or cells: MDCK (MDR1-MDCK; wild-type MDCK as comparator)
Sequence (P08183 whole entry): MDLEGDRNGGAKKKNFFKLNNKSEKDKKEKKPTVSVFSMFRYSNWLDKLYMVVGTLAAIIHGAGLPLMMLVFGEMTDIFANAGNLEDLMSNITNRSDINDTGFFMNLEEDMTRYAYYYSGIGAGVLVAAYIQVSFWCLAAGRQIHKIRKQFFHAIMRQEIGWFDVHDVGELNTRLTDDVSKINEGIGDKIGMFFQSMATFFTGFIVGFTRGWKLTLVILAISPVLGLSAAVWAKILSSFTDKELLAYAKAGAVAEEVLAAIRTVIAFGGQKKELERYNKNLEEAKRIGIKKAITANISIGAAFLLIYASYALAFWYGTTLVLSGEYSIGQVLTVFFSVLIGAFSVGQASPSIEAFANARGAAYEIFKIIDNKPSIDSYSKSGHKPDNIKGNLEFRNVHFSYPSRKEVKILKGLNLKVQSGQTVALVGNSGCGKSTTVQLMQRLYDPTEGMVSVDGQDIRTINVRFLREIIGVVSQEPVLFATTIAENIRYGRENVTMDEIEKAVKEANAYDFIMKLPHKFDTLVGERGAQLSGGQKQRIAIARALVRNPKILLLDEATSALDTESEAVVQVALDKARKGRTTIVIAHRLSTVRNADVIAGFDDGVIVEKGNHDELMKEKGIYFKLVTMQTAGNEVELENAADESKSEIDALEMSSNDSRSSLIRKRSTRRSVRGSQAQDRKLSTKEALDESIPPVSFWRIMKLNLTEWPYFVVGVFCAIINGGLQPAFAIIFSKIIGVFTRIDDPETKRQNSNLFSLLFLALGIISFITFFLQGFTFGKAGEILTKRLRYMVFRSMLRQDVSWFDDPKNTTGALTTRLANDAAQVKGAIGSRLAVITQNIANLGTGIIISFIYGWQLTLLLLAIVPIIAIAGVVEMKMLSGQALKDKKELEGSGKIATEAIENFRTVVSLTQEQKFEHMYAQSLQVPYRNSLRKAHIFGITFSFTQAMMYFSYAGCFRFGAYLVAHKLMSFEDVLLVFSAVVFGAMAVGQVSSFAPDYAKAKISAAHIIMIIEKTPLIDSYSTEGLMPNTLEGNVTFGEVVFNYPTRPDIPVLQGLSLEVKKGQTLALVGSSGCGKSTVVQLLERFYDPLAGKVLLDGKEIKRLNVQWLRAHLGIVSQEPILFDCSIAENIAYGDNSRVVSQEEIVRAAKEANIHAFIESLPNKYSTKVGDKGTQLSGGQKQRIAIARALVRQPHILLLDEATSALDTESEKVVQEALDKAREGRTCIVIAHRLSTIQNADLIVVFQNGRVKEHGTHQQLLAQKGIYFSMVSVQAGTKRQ
Assay: MDR1-MDCK permeability and efflux assay (Papp, efflux ratio, effective efflux ratio)
Type: in vitro ADME
Settings: dog, MDCK-MDR1, pH 7.4, Papp B>A/Papp A>B, MDR1-MDCK cells; read-out: ER MDR1 (Efflux Ratio)
Procedure: The MDR1-MDCK effective efflux assay was performed as described in the BioFocus Standard Operating Procedure, ADME-SOP-56. […] Incubations were performed at 37° C., with samples removed from both donor and acceptor chambers at T=0 and 1 hour and compound analysed by mass spectrometry (LC-MS/MS) including an analytical internal standard. […] Efflux ratios (Papp B>A/Papp A>B) were calculated for each compound from the mean Papp values in each direction for both wild-type and MDR1-MDCK cells. […]

Solved cases below.
>  <Molecule>
CC1COc2cc(F)ccc2N1C(=O)N1CC2(C1)CN(c1noc3ccccc13)C2 (centres unmarked) [4-3]

>  <efflux ratio at 1 h, 10 μM>
< 1

$$$$
>  <Molecule>
Cc1ccnc(N2CC3(CN(C(=O)N4c5ccc(F)cc5OCC4C)C3)C2)c1 (single isomer, unassigned)

>  <efflux ratio at 1 h, 10 μM>
< 1

$$$$
>  <Molecule>
CC1COc2cc(Cl)ccc2N1C(=O)N1CC2(C1)CN(c1cccnn1)C2 (single isomer, unassigned)

>  <efflux ratio at 1 h, 10 μM>
> 3

$$$$
>  <Molecule>
O=C(N1CC2(C1)CN(c1cnc(F)cn1)C2)N1CCOc2cc(Cl)ccc21

>  <efflux ratio at 1 h, 10 μM>
< 1

$$$$
>  <Molecule>
Cc1cncc(N2CC3(CN(C(=O)N4c5ccc(Cl)cc5OCC4C)C3)C2)n1 (centres unmarked)

>  <efflux ratio at 1 h, 10 μM>
1 to 2

$$$$

Provide measured efflux ratio at 1 h, 10 μM value, entry: CC1COc2cc(Cl)ccc2N1C(=O)N1CC2(C1)CN(c1noc3cccnc13)C2 (single isomer, unassigned) [18-3-B] < 1

For the molecule O=C(N1CC2(C1)CN(c1ccc(F)cn1)C2)N1CCOCc2cc(Cl)ccc21 , report efflux ratio at 1 h, 10 μM. 1 to 2

Item CC1COc2cc(Cl)ccc2N1C(=O)N1CC2(C1)CN(c1nccc(C(F)(F)F)n1)C2 (centres unmarked) : provide efflux ratio at 1 h, 10 μM 1 to 2

###

Biological target: UniProt P30559
Sequence (P30559 whole entry): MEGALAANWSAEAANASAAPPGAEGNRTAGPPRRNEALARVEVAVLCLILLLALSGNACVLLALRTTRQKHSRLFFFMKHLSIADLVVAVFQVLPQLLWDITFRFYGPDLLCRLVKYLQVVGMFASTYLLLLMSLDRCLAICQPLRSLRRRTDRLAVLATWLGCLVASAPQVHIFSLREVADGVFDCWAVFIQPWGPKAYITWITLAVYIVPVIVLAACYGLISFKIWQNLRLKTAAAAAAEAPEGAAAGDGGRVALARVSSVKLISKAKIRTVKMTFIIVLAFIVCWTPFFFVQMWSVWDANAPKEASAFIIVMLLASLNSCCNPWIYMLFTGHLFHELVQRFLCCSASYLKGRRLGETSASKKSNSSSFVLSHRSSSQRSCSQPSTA
Assay: Oxytocin receptor (OTR) antagonist assay (FLIPR calcium, CHEM-1-hOTR cells)
pIC50: −log10 of the molar value.
Outcome measure: pIC50

Find the measured pIC50 of O=C(N1CC2(C1)CN(c1ccc(F)cn1)C2)N1CCC(O)c2cc(Cl)ccc21 (single isomer, unassigned) [13-1-A] and report it. ≤ 6.00

Give the reported pIC50 for this molecule. COc1ccnc(N2CC3(CN(C(=O)N4c5ccc(Cl)cc5OCC4C)C3)C2)c1 (centres unmarked) [20-8] 6.30 to 7.00

Item Cc1cnc(N2CC3(CN(C(=O)N4c5ccc(Cl)cc5OCC4C)C3)C2)nc1 (single isomer, unassigned) [20-13-A] : provide pIC50 ≤ 6.00

Give reported pIC50 value for CC1COc2cc(Cl)ccc2N1C(=O)N1CC2(C1)CN(c1cccnc1)C2 (centres unmarked) [20-1] 6.30 to 7.00
